Each recorded value in this set is attributed to ChEMBL document CHEMBL1961873.

# study-system: SRSF protein kinase 3 (Homo sapiens);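 further: values are mean inhibition of MSSK1 (alias of SRPK3)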
# applied-conditions: at 1 µM
property-label: inhibition (%)

compound_string=CCn1c(-c2nonc2N)nc2c(C#CC(C)(C)O)nc(OC[C@@H](N)c3ccccc3)cc21 result_value=3.01
compound_string=COc1ccccc1Nc1ncc(-c2ccccc2)o1 result_value=1.35
compound_string=N#Cc1c(NC(=O)c2cccc3ccccc23)sc2c1CCCC2 result_value=-2.89
compound_string=CN1CCC(C(=O)Nc2n[nH]c3nnc(-c4ccccc4)cc23)CC1 result_value=-1.01
compound_string=NCc1ccc(-c2nc(-c3ccc(Cl)c(O)c3)c(-c3ccncc3)[nH]2)cc1 result_value=-2.01
compound_string=COc1cc2ncn(-c3cc(OCc4ccccc4C(F)(F)F)c(C(N)=O)s3)c2cc1OC result_value=5.51
compound_string=Nc1ncnc2occ(-c3ccc(NC(=O)Nc4cc(C(F)(F)F)cc(C(F)(F)F)c4)cc3)c12 result_value=-0.42
compound_string=CCn1c(-c2nonc2N)nc2ccncc21 result_value=-2.78
compound_string=CCCN1CCC(Oc2cc(Nc3nc(Nc4cccc(F)c4C(N)=O)c4cc[nH]c4n3)c(OC)cc2Cl)CC1 result_value=3.91
compound_string=CC(=O)Nc1cccc(C#Cc2cncnc2Nc2ccc(OCc3cccc(F)c3)c(Cl)c2)n1 result_value=3.44
compound_string=COc1cc2ncn(-c3cc(O[C@@H](C)c4ccccc4Cl)c(C(N)=O)s3)c2cc1OC result_value=-0.07
compound_string=CCn1c(-c2nonc2N)nc2cncc(C(=O)N3CC[C@H](N)C3)c21 result_value=-1.83
